Source of measurements: patent US20220177589A1

# Experimental Target: chimeric BTLA of humanised-BTLA mice (human extracellular region, murine transmembrane and signaling … (human; mouse, UniProt Q7TSA3 184-306, limits assumed)
# Sequence (Q7TSA3 other isoform, or with tags, fused parts or gaps mutant limits assumed): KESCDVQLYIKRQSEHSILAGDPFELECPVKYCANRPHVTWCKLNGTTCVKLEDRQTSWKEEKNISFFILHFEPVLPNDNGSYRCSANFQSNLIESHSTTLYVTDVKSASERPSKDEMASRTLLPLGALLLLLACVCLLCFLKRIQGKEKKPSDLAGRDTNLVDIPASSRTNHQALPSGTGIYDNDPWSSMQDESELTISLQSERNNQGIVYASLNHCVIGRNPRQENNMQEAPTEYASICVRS
# Test Name: cell-based or functional assay
Quantity Name: MLR (CD4 T cell proliferation) repeat 2, % inhibition (%)
Give bare numbers, in %.

Below are worked cases with known answers.
Binder: 11.5.1 (antibody, IgG1, V domains shown) VH: EVQLQESGPSLVKPSQTLSLTCSVTGDSITSAYWNWIRKFPGNKLEYMGYISYSGSTYFNPSLKSRISITRNTSKNQYYLQLNSVTTEDTATYYCARSHYYGYYFDYWGHGTTLTVSS VL: DIVLTQSPASLAVSLGQRATISCRASETIDSYGDSLMHWYQQKAGQPPKLLIYRASNLESGIPARFSGSGSRTDFTLTINPVEADDVATYYCQQTDEDPYTFGGGTKLEIK
Unit Descriptor: %
Readout Number: 18
//
Binder: 4H4 (antibody, IgG1, V domains shown) VH: QVQLQQSGAELARPGASVKLSCKASGYTFTSYGISWVKQRTGQGLEWIGEIYPRSGNTYYNEKFKGKATLTADKSSSTAYMELRSLTSEDSAVYFCARRRGAGDGFDYWGQGTTLTVSS VL: DIQMTQTTSSLSASLGDRVTISCSASQGISNYLNWYQQKPDGTVKLLIYYTSSLHSGVPSRFSGSGSGTDYSLTISNLEPEDIATYYCQQYSKLPFTFGSGTKLEIK
Unit Descriptor: %
Readout Number: 17

Continue with the next binder.
Input: I'd like to know its MLR (CD4 T cell proliferation) repeat 2, % inhibition. The binder in question is 6.2 (antibody, IgG1, V domains shown) VH: EVKLVESGGGLVKPGGSLKLSCAASGFTLSSYGMSWVRQIPEKRLEWVASIRSDGNTYYPDSVKGRFIISRDNARNILYLQMSSLRSEDTAMYYCTRGGYYGSSPYYWGQGTTLTVSS VL: DIVMSQSPSSLPVSVGEKISMTCKSSQSLLYSSNQKNYLAWYQQKPGQSPKLLIYWASTRDSGVPDRFIGSGSGTDFTLTINSVKAEDLAVYYCQQYYNYLTFGAGTKLELK
Output: 35
